// data source = paper PMC4476725

# tested_system: RSV RNP complex (Human respiratory syncytial virus A, UniProt P28887)
# experiment_description: biochemical
# Format: biochemical
# condition_description: first symbol of RSV / HCV; read-out: RSV polymerase inhibition class (IC50, RSV RNP complex)
value_kind: IC50

Some molecules with recorded IC50:
molecule	tested_system	value_kind	result
Nc1ccn([C@@H]2O[C@H](COP(=O)(O)OP(=O)(O)OP(=O)(O)O)[C@@H](O)C2(F)F)c(=O)n1 [2'diF-CTP, reference compound]	RSV RNP complex (Human respiratory syncytial virus A, UniProt P28887)	IC50	> 10 µM
[N-]=[N+]=N[C@]1(COP(=O)(O)OP(=O)(O)OP(=O)(O)O)O[C@@H](n2ccc(N)nc2=O)[C@H](F)[C@@H]1O [2'F-4'N3-CTP]	RSV RNP complex (Human respiratory syncytial virus A, UniProt P28887)	IC50	0.1 to 10 µM
[N-]=[N+]=N[C@]1(COP(=O)(O)OP(=O)(O)OP(=O)(O)O)O[C@@H](n2ccc(N)nc2=O)[C@H](O)[C@@H]1O [4'N3-CTP, reference compound]	RSV RNP complex (Human respiratory syncytial virus A, UniProt P28887)	IC50	0.1 to 10 µM
[N-]=[N+]=NC1(COP(=O)(O)OP(=O)(O)OP(=O)(O)O)OC(n2ccc(N)nc2=O)C(F)(F)C1O (stereo not drawn) [2'diF-4'N3-CTP]	RSV RNP complex (Human respiratory syncytial virus A, UniProt P28887)	IC50	0.1 to 10 µM
Nc1ccn([C@@H]2O[C@](CCl)(COP(=O)(O)OP(=O)(O)OP(=O)(O)O)[C@@H](O)C2(F)F)c(=O)n1 [2'diF-4'ClCH2-CTP]	RSV RNP complex (Human respiratory syncytial virus A, UniProt P28887)	IC50	> 10 µM

Please find the next molecule below.
q: // Input: C[C@@]1(F)[C@H](O)[C@@H](COP(=O)(O)OP(=O)(O)OP(=O)(O)O)O[C@H]1n1ccc(N)nc1=O [mericitabine-TP, 2'F-2'Me-CTP, reference compound] . Output its IC50 only.
a: > 10 µM

----------
# tested_system: PIV-1 polymerase (Human respirovirus 1)
# experiment_description: biochemical
# condition_description: Parainfluenza virus type-1 polymerase
value_kind: IC50 (nM)
Just the number please, in nM, no unit attached.

q: Quote IC50 reported for Nc1ccn([C@@H]2O[C@](CCl)(COP(=O)(O)OP(=O)(O)OP(=O)(O)O)[C@@H](O)[C@H]2F)c(=O)n1 [ALS-8112-TP] please.
a: 2300

----------
# experiment_description: in vitro
# condition_description: human
value_kind: CC50

q: Kindly indicate its recorded CC50. Item: Nc1ccn([C@@H]2O[C@@](CO)(CCl)[C@@H](O)[C@H]2F)c(=O)n1
a: > 100 µM

----------
Below, each of the compounds is paired with its reported pIC50 value.
# tested_system: HCV polymerase (Hepatitis C virus genotype 1b, UniProt Q9WMX2)
# experiment_description: HCV polymerase inhibition assay
# Format: biochemical
# condition_description: second symbol of RSV / HCV; read-out: HCV polymerase inhibition class (IC50)
pIC50: −log10 of the molar value.

q: Give the value of pIC50 reported for the following: [N-]=[N+]=NC1(COP(=O)(O)OP(=O)(O)OP(=O)(O)O)OC(n2ccc(N)nc2=O)C(F)(F)C1O (stereo not shown)
a: 5.00 to 7.00
